- System: Pseudomonas aeruginosa
- EXPERIMENT SUMMARY: Ratio of Kcat to Km for Pseudomonas aeruginosa COL-1 metallo-beta lactamase VIM-2 over Kcat to Km for Pseudomonas aeruginosa M5109 metallo-beta-lactamase VIM-11
Exercise: state measured kcat/Km ratio for each of the compounds provided.

Q) Note kcat/Km ratio for the compound shown: `CC(C)(O/N=C(\C(=O)N[C@@H]1C(=O)N2C(C(=O)[O-])=C(C[n+]3ccccc3)CS[C@H]12)c1csc(N)n1)C(=O)O`
A) 4.06

Q) Note kcat/Km ratio for the compound shown: `CO/N=C(\C(=O)N[C@@H]1C(=O)N2C(C(=O)O)=C(COC(C)=O)CS[C@H]12)c1csc(N)n1`
A) 0.78

Q) Note kcat/Km ratio for the compound shown: `C[C@@H](O)[C@H]1C(=O)N2C(C(=O)O)=C(S[C@@H]3CN[C@H](C(=O)N(C)C)C3)[C@H](C)[C@H]12`
A) 1

Q) Note kcat/Km ratio for the compound shown: `CC1(C)S[C@@H]2[C@H](NC(=O)[C@H](N)c3ccccc3)C(=O)N2[C@H]1C(=O)O`
A) 0.81

Q) Note kcat/Km ratio for the compound shown: `O=C(Cc1cccs1)N[C@@H]1C(=O)N2C(C(=O)O)=C(/C=C/c3ccc([N+](=O)[O-])cc3[N+](=O)[O-])CS[C@H]12`
A) 1.06

Q) Note kcat/Km ratio for the compound shown: `CO/N=C(\C(=O)N[C@@H]1C(=O)N2C(C(=O)[O-])=C(C[n+]3cccc4c3CCC4)CS[C@H]12)c1csc(N)n1`
A) 2

Next item in the queue.
Q) Note kcat/Km ratio for the compound shown: `CC(=O)OCC1=C(C(=O)O)N2C(=O)[C@@H](NC(=O)Cc3cccs3)[C@H]2SC1`
A) 1.12

====

Exercise: state measured kcat/Km ratio for each of the molecules provided.
- Tested on: Pseudomonas aeruginosa
- EXPERIMENT SUMMARY: Ratio of Kcat to Km for Pseudomonas aeruginosa COL-1 metallo-beta lactamase VIM-2 over Kcat to Km for Pseudomonas aeruginosa M5109 metallo-beta-lactamase VIM-11
Numbers only.

These recorded examples may help you get a feel for the data.
Q) Note kcat/Km ratio for the molecule shown: `CO/N=C(\C(=O)N[C@@H]1C(=O)N2C(C(=O)[O-])=C(C[N+]3(C)CCCC3)CS[C@H]12)c1csc(N)n1`
A) 2.9

Q) Note kcat/Km ratio for the molecule shown: `CO/N=C(\C(=O)N[C@@H]1C(=O)N2C(C(=O)O)=C(COC(N)=O)CS[C@H]12)c1ccco1`
A) 0.89

Q) Note kcat/Km ratio for the molecule shown: C[C@@H](O)[C@H]1C(=O)N2C(C(=O)O)=C(SCCNC=N)C[C@H]12 [IMIPENEM ANHYDROUS]
A) 0.67

Further cases:
Q) Note kcat/Km ratio for the molecule shown: `CO[C@@]1(NC(=O)Cc2cccs2)C(=O)N2C(C(=O)O)=C(COC(N)=O)CS[C@@H]21`
A) 0.86

Attribution: ChEMBL document CHEMBL1255351
